# Assayed system: GST-TAX IP2 PDZ domain 1 [GST: P08515]
# Sequence (P08515 whole entry, the tested form may be a part): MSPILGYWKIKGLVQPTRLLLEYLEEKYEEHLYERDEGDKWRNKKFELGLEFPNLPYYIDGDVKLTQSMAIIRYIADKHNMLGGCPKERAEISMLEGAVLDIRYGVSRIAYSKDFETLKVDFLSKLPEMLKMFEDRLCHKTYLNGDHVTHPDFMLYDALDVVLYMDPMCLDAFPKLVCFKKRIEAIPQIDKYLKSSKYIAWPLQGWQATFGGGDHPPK
# Method: G' assay; further: key of the grades not given here
Form field: Classification (one value per entry).
Enter your answer as a number in A450 class; do not include the unit.

[[record]]
binder = "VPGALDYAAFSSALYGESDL (modifications not checked) [a-actinin 2]"
endpoint = "Classification"
observed_value = 5


Q. Which Classification value is on record for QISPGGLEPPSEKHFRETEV (modifications not checked) [TAX] ?
A. 2

Q. Next binder up: VDSERRPHFPQFSYSASSTA (modifications not checked) [AKT1]
A. 4

Q. Can you check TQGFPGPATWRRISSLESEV (modifications not checked) [NMDA Glutamate Receptor 2C (cysteine-free)] next?
A. 4

Q. ERASSVYTRSTGEQEISVGL (modifications not checked) [CKR5 (HIV Co-receptor)] ?
A. 1
